Cited source for all entries: patent US10611750B2

Biological target: BRD4 Bromodomain 2 (BRD4 BD2) (Homo sapiens, UniProt O60885)
Construct: 333-460 were cloned, expressed, and purified to homogeneity
Test: AlphaScreen binding assay, BRD4 BD2
Conditions: His-tagged BRD4 BD2 100 nM, biotinylated H4 (1-21) K5/8/12/16 tetra-acetylated peptide 100 nM, compounds listed under IC50 range headings
pIC50: −log10 of the molar value.
measured-parameter: pIC50

[
  {
    "smiles-representation": "COC(=O)N1c2ccc(-c3cnn(CC(C)(C)O)c3)c(OCCN(C)S(C)(=O)=O)c2CC[C@@H]1C",
    "pIC50": "6.30 to 7.30"
  },
  {
    "smiles-representation": "CC(=O)N1c2ccc(-c3cnn(CCO)c3)c(OC3CCC3)c2CC[C@@H]1C",
    "pIC50": "> 7.30"
  },
  {
    "smiles-representation": "CC(=O)N1c2ccc(-c3cnn(C4CCNCC4)c3)c(Oc3ccc(Cl)cc3)c2CC[C@@H]1C",
    "pIC50": "> 7.30"
  },
  {
    "smiles-representation": "CC(=O)N1c2ccc(-c3cnn(C4CC4)c3)c(OCC(C)(C)CO)c2CC[C@@H]1C",
    "pIC50": "> 7.30"
  },
  {
    "smiles-representation": "CCCOc1c(-c2cnn(CCS(C)(=O)=O)c2)ccc2c1CC[C@H](C)N2C(C)=O",
    "pIC50": "> 7.30"
  }
]

Return pIC50 measured with BRD4 Bromodomain 2 (BRD4 BD2) (Homo sapiens, UniProt O60885) given this compound: CC(=O)N1c2ccc(-c3cnn(C4CC4)c3)c(OCc3ccncc3)c2CC[C@@H]1C
> 7.30

CC(=O)N1c2ccc(-c3cnn(CC(C)(C)O)c3)c(OCC3CCOCC3)c2CC[C@@H]1C , same question.
6.30 to 7.30

CC(=O)N1c2ccc(-c3cnn(CCO)c3)c(OCC(C)C)c2CC[C@@H]1C , same question.
> 7.30

====

Molecular target: BRD4 Bromodomain 1 (BRD4 BD1) (Homo sapiens)
Construct: 44-168 and BRD4 BD2
Test: AlphaScreen binding assay, BRD4 BD1
Details: His-tagged BRD4 BD1 50 nM, biotinylated H4 (1-21) K5/8/12/16 tetra-acetylated peptide 50 nM, compounds listed under IC50 range headings
measured-parameter: IC50

Sample answers from the record:
[
  {
    "compound": "CC(=O)N1c2ccc(-c3cnn(C4CC4)c3)c(Oc3cnccn3)c2CC[C@@H]1C [I-88]",
    "study-system": "BRD4 Bromodomain 1 (BRD4 BD1) (Homo sapiens)",
    "value-observed": "100 to 1000 nM"
  },
  {
    "compound": "CC(=O)N1c2ccc(-c3cnn(C4CC4)c3)c(Oc3cc(C)ccn3)c2CC[C@@H]1C [I-255]",
    "study-system": "BRD4 Bromodomain 1 (BRD4 BD1) (Homo sapiens)",
    "value-observed": "100 to 1000 nM"
  },
  {
    "compound": "CC(=O)N1c2ccc(-c3cnn(C4CCNCC4)c3)c(OCC3CCOCC3)c2CC[C@@H]1C [I-416]",
    "study-system": "BRD4 Bromodomain 1 (BRD4 BD1) (Homo sapiens)",
    "value-observed": "< 100 nM"
  },
  {
    "compound": "CCCOc1c(-c2cnn(CCO)c2)ccc2c1CC[C@H](C)N2C(C)=O [I-1]",
    "study-system": "BRD4 Bromodomain 1 (BRD4 BD1) (Homo sapiens)",
    "value-observed": "100 to 1000 nM"
  },
  {
    "compound": "COC(=O)N1c2ccc(-c3cnn(C4CC4)c3)c(OCC(=O)N3CCCCC3)c2CC[C@@H]1C [I-24]",
    "study-system": "BRD4 Bromodomain 1 (BRD4 BD1) (Homo sapiens)",
    "value-observed": "100 to 1000 nM"
  },
  {
    "compound": "CCCOc1c(-c2cnn(CC(C)(C)O)c2)ccc2c1CC[C@H](C)N2C(C)=O [I-408]",
    "study-system": "BRD4 Bromodomain 1 (BRD4 BD1) (Homo sapiens)",
    "value-observed": "100 to 1000 nM"
  }
]

Shift focus to the following entry.
Request the reported IC50 associated with CCCOc1c(C2CCNCC2)ccc2c1CC[C@H](C)N2C(C)=O [I-353]
≥ 10000 nM
